- ASSAYED_TARGET: mushroom tyrosinase
- PROCEDURE_SUMMARY: Inhibitory effect on tyrosinase
- COND: L-tyrosine substrate, pH 6.5, 37° C., 30 minutes; read-out: Inhibition of tyrosinase
pIC50: −log10 of the molar value.
VALUE_TYPE: pIC50

Solved entries:
>>> numeric_result("O=C(O)CCCC[C@@H]1CCSS1 (racemic)")
4.36
>>> numeric_result("O=C(CCCCC1CCSS1)OCCOc1cc(O)c2c(c1)OC(c1ccc(O)cc1)CC2=O (centres unmarked)")
3.59
>>> numeric_result("OC[C@H]1O[C@@H](Oc2ccc(O)cc2)[C@H](O)[C@@H](O)[C@@H]1O [Arbutin, reference compound]")
3.58

(1) O=C(CCCCC1CCSS1)OCCOCCOCCOc1cc(O)c2c(c1)OC(c1ccc(O)cc1)CC2=O (centres unmarked)
(2) O=C(CCCCC1CCSS1)Oc1ccc(C2CC(=O)c3c(O)cc(O)cc3O2)cc1 (centres unmarked)
(3) O=C(CCCCC1CCSS1)Oc1cc(O)c2c(c1)OC(c1ccc(O)cc1)CC2=O (centres unmarked)
Ask: Order the 3 compounds from highest to lowest pIC50. Output the labels ranked as instructed.
Reply: 3, 2, 1
(3: 4.49, 2: 4.24, 1: 3.46)

---

- ASSAYED_TARGET: mushroom tyrosinase
- PROCEDURE_SUMMARY: Inhibitory effect on tyrosinase
- COND: L-tyrosine substrate, pH 6.5, 37° C., 30 minutes; read-out: Inhibition of tyrosinase
pIC50: −log10 of the molar value.
VALUE_TYPE: pIC50

>>> numeric_result("O=C(CCCCC1CCSS1)OCCOCCOc1cc(O)c2c(c1)OC(c1ccc(O)cc1)CC2=O (stereo not shown)")
3.65

(1) O=C1C[C@@H](c2ccc(O)cc2)Oc2cc(O)cc(O)c21
(2) O=C(CCCCC1CCSS1)Oc1ccc(C2CC(=O)c3c(O)cc(OC(=O)CCCCC4CCSS4)cc3O2)cc1 (stereo not shown)
Ask: Quick check, higher pIC50 between 1 and 2 ? I would appreciate it if you answered with the label of your choice.
Reply: 1
(1: 4.09, 2: 3.88)
